molecular target: ChREBP (ChREBPα) (Mus musculus, UniProt Q99MZ3); test: isothermal titration calorimetry, purified refolded GSM domain, […] °C; assay type: binding
Sequence (Q99MZ3 43-307): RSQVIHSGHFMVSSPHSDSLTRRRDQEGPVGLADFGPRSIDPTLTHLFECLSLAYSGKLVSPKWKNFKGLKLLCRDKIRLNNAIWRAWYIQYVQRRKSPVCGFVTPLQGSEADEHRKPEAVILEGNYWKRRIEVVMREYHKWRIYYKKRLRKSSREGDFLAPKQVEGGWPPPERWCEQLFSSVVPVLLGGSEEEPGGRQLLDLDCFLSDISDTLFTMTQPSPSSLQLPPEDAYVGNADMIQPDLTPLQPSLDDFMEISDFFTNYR
endpoint: Kd (µM)
Value expressed in µM; do not type the unit.

I would be grateful if you could share the reported Kd for O=C(CO)COP(=O)(O)O [DHAP, dihydroxyacetone phosphate] .
453
